# Organism: Mus musculus
# assay_details: Concentration of compound to inhibit 50% (IC50) electrically evoked contractions was tested in Mouse vas deferens (MVD) assay.
# Assay type: functional
Square brackets hold non-standard residues; d marks the D form. Peptide text beside a SMILES is read from it. dNle = CCCC[C@@H](N)C(=O)O; dNva = CCC[C@@H](N)C(=O)O; Orn = NCCC[C@H](N)C(=O)O

{"compound": "C[C@@H](NC(=O)[C@@H](N)Cc1ccc(O)cc1)C(=O)N[C@@H](Cc1ccccc1)C(=O)N[C@@H](Cc1ccccc1)C(=O)N[C@@H](CCCN=C(N)N)C(=O)N[C@@H](CCCN=C(N)N)C(N)=O", "IC50, nM": 1300}
{"compound": "CCCC[C@@H](NC(=O)[C@@H](N)Cc1ccc(O)cc1)C(=O)N[C@@H](Cc1ccccc1)C(=O)N[C@@H](CCCN)C(N)=O (H-Y[dNle]F[Orn]-NH2)", "IC50, nM": 2290}
{"compound": "NC(=O)[C@@H]1CC(=O)NCCC[C@@H](NC(=O)[C@@H](N)c2ccc(O)cc2)C(=O)N[C@@H](Cc2ccccc2)C(=O)N1", "IC50, nM": 3880}
{"compound": "NCCC[C@H](NC(=O)[C@H](Cc1ccccc1)NC(=O)[C@@H](CCCN=C(N)N)NC(=O)[C@@H](N)Cc1ccc(O)cc1)C(N)=O", "IC50, nM": 1090}
{"compound": "NC(N)=NCCC[C@@H](NC(=O)C(N)Cc1ccc(O)cc1)C(=O)NC(Cc1ccccc1)C(=O)NCCC(N)C(=O)O (stereo partly drawn)", "IC50, nM": 659}
{"compound": "NC(=O)[C@H](CCCN=C(N)N)NC(=O)[C@H](CCCN=C(N)N)NC(=O)[C@@H]1CC(=O)NCCC[C@@H](NC(=O)[C@@H](N)Cc2ccc(O)cc2)C(=O)N[C@@H](Cc2ccccc2)C(=O)N1", "IC50, nM": 745}
{"compound": "CCC[C@@H](NC(=O)[C@@H](N)Cc1ccc(O)cc1)C(=O)N[C@@H](Cc1ccccc1)C(=O)N[C@@H](CCCN)C(N)=O (H-Y[dNva]F[Orn]-NH2)", "IC50, nM": 271}
{"compound": "CCCC[C@H](NC(=O)[C@H](Cc1ccccc1)NC(=O)[C@@H](CCC)NC(=O)[C@@H](N)Cc1ccc(O)cc1)C(N)=O", "IC50, nM": 153}

Hello, the source for this data is ChEMBL document CHEMBL1124430, in case you need it.
